Test system: c-Myc
Assay notes: c-Myc ELISA assay protocol in 22RV-1 cells
Assay type: cell-based, human
Test context: 18 h, read-out: cMyc IC50
pIC50: −log10 of the molar value.
Quantity measured: pIC50

Cc1sc2c(c1C)C(c1ccc(Cl)cc1)=N[C@@H](CC(=O)NCCCNc1cccc3c1C(=O)N(C1CCC(=O)NC1=O)C3=O)c1nnc(C)n1-2 (some centres unmarked) [Compound 25]
< 7.30

Problem: Which value of pIC50 has been reported for Cc1sc2c(c1C)C(c1ccc(Cl)cc1)=N[C@@H](CC(=O)NCCOCCNc1cccc3c1C(=O)N(C1CCC(=O)NC1=O)C3=O)c1nnc(C)n1-2 (some centres unmarked) [Compound 27] in the records?
Result: > 7.30

Problem: Which value of pIC50 has been reported for Cc1sc2c(c1C)C(c1ccc(Cl)cc1)=N[C@@H](CC(=O)N[C@H]1CCN(C(=O)c3ccc(OCCNc4cccc5c4C(=O)N(C4CCC(=O)NC4=O)C5=O)cc3)C1)c1nnc(C)n1-2 (some centres unmarked) [Compound 55] in the records?
Result: > 7.30

Problem: Which value of pIC50 has been reported for Cc1sc2c(c1C)C(c1ccc(Cl)cc1)=N[C@@H](CC(=O)Nc1ccc(OCCCCOCCCNc3cccc4c3C(=O)N(C3CCC(=O)NC3=O)C4=O)cc1F)c1nnc(C)n1-2 (some centres unmarked) [Compound 33] in the records?
Result: > 7.30

Problem: Which value of pIC50 has been reported for Cc1sc2c(c1C)C(c1ccc(Cl)cc1)=N[C@@H](CC(=O)NCCOCCOCCNc1cccc3c1C(=O)N(C1CCC(=O)NC1=O)C3=O)c1nnc(C)n1-2 (some centres unmarked) [Compound 37] in the records?
Result: > 7.30

###

Test system: c-Myc
Assay notes: c-Myc ELISA assay protocol in 22RV-1 cells
Type: cell-based, human
Test context: 18 h, read-out: cMyc IC50
Quantity measured: IC50

Cc1sc2c(c1C)C(c1ccc(Cl)cc1)=N[C@@H](CC(=O)Nc1ccc(OCCOCCOCCOCCNc3cccc4c3C(=O)N(C3(C)CCC(=O)NC3=O)C4=O)cc1)c1nnc(C)n1-2 (some centres unmarked) [Compound 49]
> 50 nM

Problem: Which value of IC50 has been reported for Cc1sc2c(c1C)C(c1ccc(Cl)cc1)=N[C@@H](CC(=O)N[C@H](C)c1ccc(OCCOCCNc3cccc4c3CN(C3CCC(=O)NC3=O)C4=O)cc1)c1nnc(C)n1-2 (some centres unmarked) [Compound 38] in the records?
Result: < 50 nM

Problem: Which value of IC50 has been reported for Cc1sc2c(c1C)C(c1ccc(Cl)cc1)=N[C@@H](CC(=O)Nc1cnc(-c3ccc(OCCCNc4cccc5c4C(=O)N(C4CCC(=O)NC4=O)C5=O)cc3)nc1)c1nnc(C)n1-2 (some centres unmarked) [Compound 31] in the records?
Result: < 50 nM

Problem: Which value of IC50 has been reported for Cc1sc2c(c1C)C(c1ccc(Cl)cc1)=N[C@@H](CC(=O)N[C@H]1CCN(C(=O)c3ccc(NCCNc4cccc5c4C(=O)N(C4CCC(=O)NC4=O)C5=O)cc3)C1)c1nnc(C)n1-2 (some centres unmarked) [Compound 52] in the records?
Result: > 50 nM

Problem: Which value of IC50 has been reported for Cc1sc2c(c1C)C(c1ccc(Cl)cc1)=N[C@@H](CC(=O)NCCCNc1cccc3c1CN(C1CCC(=O)NC1=O)C3=O)c1nnc(C)n1-2 (some centres unmarked) [Compound 46] in the records?
Result: > 50 nM

Problem: Which value of IC50 has been reported for Cc1sc2c(c1C)C(c1ccc(Cl)cc1)=N[C@@H](CC(=O)N[C@H](C)c1ccc(OCCCNc3cccc4c3C(=O)N(C3CCC(=O)NC3=O)C4=O)cc1)c1nnc(C)n1-2 (some centres unmarked) [Compound 30] in the records?
Result: < 50 nM

###

Test system: c-Myc
Assay notes: c-Myc ELISA assay protocol in 22RV-1 cells
Type: cell-based, human
Test context: 18 h, read-out: cMyc IC50
pIC50: −log10 of the molar value.
Item-by-item account of pIC50

Cc1sc2c(c1C)C(c1ccc(Cl)cc1)=N[C@@H](CC(=O)N[C@@H](C)c1ccc(OCCCOCCNc3cccc4c3C(=O)N(C3CCC(=O)NC3=O)C4=O)cc1)c1nnc(C)n1-2 (stereo partly shown) [Compound 41]
> 7.30
Cc1sc2c(c1C)C(c1ccc(Cl)cc1)=N[C@@H](CC(=O)N[C@H](C)c1ccc(OCCCCNc3cccc4c3C(=O)N(C3CCC(=O)NC3=O)C4=O)cc1)c1nnc(C)n1-2 (stereo partly shown) [Compound 28]
> 7.30
Cc1sc2c(c1C)C(c1ccc(Cl)cc1)=N[C@@H](CC(=O)N[C@H]1CCN(C(=O)c3ccc(OCCNc4cccc5c4CN(C4CCC(=O)NC4=O)C5=O)cc3)C1)c1nnc(C)n1-2 (stereo partly shown) [Compound 59]
< 7.30

Turning to the following compound.
Problem: Which value of pIC50 has been reported for Cc1sc2c(c1C)C(c1ccc(Cl)cc1)=N[C@@H](CC(=O)NCCOCCNc1cccc3c1CN(C1CCC(=O)NC1=O)C3=O)c1nnc(C)n1-2 (stereo partly shown) [Compound 39] in the records?
Result: < 7.30

###

Item-by-item account of IC50
Tested on: c-Myc
Assay notes: c-Myc ELISA assay protocol in 22RV-1 cells
Assay type: cell-based, human
Test context: 18 h, read-out: cMyc IC50

Problem: Which value of IC50 has been reported for Cc1sc2c(c1C)C(c1ccc(Cl)cc1)=N[C@@H](CC(=O)Nc1ccc(OCCCCOCCCNc3cccc4c3C(=O)N(C3CCC(=O)NC3=O)C4=O)c(F)c1)c1nnc(C)n1-2 (some centres unmarked) [Compound 34] in the records?
Result: < 50 nM

Problem: Which value of IC50 has been reported for Cc1sc2c(c1C)C(c1ccc(Cl)cc1)=N[C@@H](CC(=O)Nc1ccc(OCCOCCOCCOCCNc3cccc4c3C(=O)N(C3CCC(=O)N(C)C3=O)C4=O)cc1)c1nnc(C)n1-2 (some centres unmarked) [Compound 50] in the records?
Result: > 50 nM

Problem: Which value of IC50 has been reported for Cc1nnc2n1C1=C(C(c3ccc(Cl)cc3)=N[C@H]2CC(=O)NCCCCCNc2cccc3c2C(=O)N(C2CCC(=O)NC2=O)C3=O)C(C)C(C)S1 (some centres unmarked) [Compound 45] in the records?
Result: < 50 nM

Problem: Which value of IC50 has been reported for Cc1sc2c(c1C)C(c1ccc(Cl)cc1)=N[C@@H](CC(=O)NCCCCNc1cccc3c1C(=O)N(C1CCC(=O)NC1=O)C3=O)c1nnc(C)n1-2 (some centres unmarked) [Compound 43] in the records?
Result: > 50 nM

Problem: Which value of IC50 has been reported for Cc1sc2c(c1C)C(c1ccc(Cl)cc1)=N[C@@H](CC(=O)N[C@H](C)c1cccc(OCCCNc3cccc4c3CN(C3CCC(=O)NC3=O)C4=O)c1)c1nnc(C)n1-2 (some centres unmarked) [Compound 51] in the records?
Result: > 50 nM

Problem: Which value of IC50 has been reported for Cc1sc2c(c1C)C(c1ccc(Cl)cc1)=N[C@H](CC(=O)Nc1ccc(OCCOCCOCCOCCNc3cccc4c3CN(C3CCC(=O)NC3=O)C4=O)cc1)c1nnc(C)n1-2 (some centres unmarked) [Compound 35] in the records?
Result: < 50 nM

Problem: Which value of IC50 has been reported for Cc1sc2c(c1C)C(c1ccc(Cl)cc1)=N[C@@H](CC(=O)Nc1ccc(OCCCOCCNc3cccc4c3C(=O)N(C3CCC(=O)NC3=O)C4=O)c(F)c1)c1nnc(C)n1-2 (some centres unmarked) [Compound 32] in the records?
Result: < 50 nM

Problem: Which value of IC50 has been reported for Cc1sc2c(c1C)C(c1ccc(Cl)cc1)=N[C@@H](CC(=O)NCCCOCCCNc1cccc3c1C(=O)N(C1CCC(=O)NC1=O)C3=O)c1nnc(C)n1-2 (some centres unmarked) [Compound 24] in the records?
Result: < 50 nM

Problem: Which value of IC50 has been reported for Cc1sc2c(c1C)C(c1ccc(Cl)cc1)=N[C@@H](CC(=O)N[C@@H](C)c1ccc(OCCOCCNc3cccc4c3CN(C3CCC(=O)NC3=O)C4=O)cc1)c1nnc(C)n1-2 (some centres unmarked) [Compound 42] in the records?
Result: < 50 nM

Problem: Which value of IC50 has been reported for Cc1sc2c(c1C)C(c1ccc(Cl)cc1)=N[C@@H](CC(=O)N[C@@H](C)c1ccc(-c3ncc(OCCCNc4cccc5c4C(=O)N(C4CCC(=O)NC4=O)C5=O)cn3)cc1)c1nnc(C)n1-2 (some centres unmarked) [Compound 40] in the records?
Result: < 50 nM

Problem: Which value of IC50 has been reported for Cc1sc2c(c1C)C(c1ccc(Cl)cc1)=N[C@@H](CC(=O)N[C@H](C)c1cccc(OCCNc3cccc4c3CN(C3CCC(=O)NC3=O)C4=O)c1)c1nnc(C)n1-2 (some centres unmarked) [Compound 60] in the records?
Result: > 50 nM
